target: mouse GnRH receptor (Mus musculus, UniProt Q01776); construct: expressed in transfected cells; host or cells: 293 cells; assay: Radioligand binding, 125I-GnRH-A, 293 cells expressing mouse GnRH receptors; conditions: 10 uM; read-out: % Inhib. @ 10 uM mGnRH
Sequence (Q01776 whole entry): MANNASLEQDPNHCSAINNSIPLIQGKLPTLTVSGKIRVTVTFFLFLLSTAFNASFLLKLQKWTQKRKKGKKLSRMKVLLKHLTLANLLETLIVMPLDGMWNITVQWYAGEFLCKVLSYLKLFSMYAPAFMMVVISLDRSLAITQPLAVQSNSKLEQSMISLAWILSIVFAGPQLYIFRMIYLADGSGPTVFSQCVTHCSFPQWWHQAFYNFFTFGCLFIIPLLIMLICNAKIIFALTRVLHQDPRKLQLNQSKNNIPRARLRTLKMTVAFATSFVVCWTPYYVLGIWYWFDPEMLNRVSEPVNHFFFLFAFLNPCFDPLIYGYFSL
Answer each item with its documented inhibition at 10 µM.
The reply should consist of the numeric value with the unit placed after it.

Request the reported inhibition at 10 µM associated with Cc1cc2c(cc1Cc1ccc(C(=O)NC(CO)CC3CCCCC3)o1)C(C)(C)CCC2(C)C (stereo not shown) [drawing 1465]
76%

Now this one: CC1(C)CCC(C)(C)c2cc(Cc3ccc(C(=O)NC4c5ccccc5-c5ccccc54)o3)ccc21
53%

Entry to check: COC(OC)C(C)NC(=O)c1ccc(Cc2cc3c(cc2C)C(C)(C)CCC3(C)C)o1 (stereo not shown) [drawing 1589]
97%

Cc1cc2c(cc1Cc1ccc(C(=O)N(Cc3ccco3)C3CC(=O)N(C)C3=O)o1)C(C)(C)CCC2(C)C (stereo not shown) [drawing 1504] , same question.
69%

====

Kindly supply the reported inhibition at 1 µM values for the records listed here.
target: human GnRH receptor (Homo sapiens); construct: expressed in transfected cells; host or cells: HEK 293 (hGnRH-R/293, from Dr. Stuart Sealfon); assay: Radioligand binding, 125I-GnRH-A displacement, membranes of HEK 293 cells with human GnRH receptor; settings: 1 uM; read-out: % Inhib. @ 1 uM hGnRH
Sequence (P30968 whole entry): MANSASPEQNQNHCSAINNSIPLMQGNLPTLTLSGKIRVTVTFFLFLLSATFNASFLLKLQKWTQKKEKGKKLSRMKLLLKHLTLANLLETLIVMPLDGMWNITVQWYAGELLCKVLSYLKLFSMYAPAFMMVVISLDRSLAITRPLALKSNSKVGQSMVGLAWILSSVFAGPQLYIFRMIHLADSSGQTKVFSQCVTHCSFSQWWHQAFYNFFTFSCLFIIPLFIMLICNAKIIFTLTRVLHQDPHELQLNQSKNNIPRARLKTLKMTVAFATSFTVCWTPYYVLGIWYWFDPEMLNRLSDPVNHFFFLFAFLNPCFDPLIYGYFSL
Expressed in %, but write only the number.

So what's the measured inhibition at 1 µM for this one? Cc1cc2c(cc1Cc1ccc(C(=O)N(CCc3ccccc3)Cc3ccccc3O)o1)C(C)(C)CCC2(C)C
-20

Same thing, different compound: Cc1cc2c(cc1Cc1ccc(C(=O)NCCc3ccccn3)o1)C(C)(C)CCC2(C)C [drawing 985]
50

Here is the next compound: Cc1cc2c(cc1Cc1ccc(C(=O)NCc3cccc(-c4ccccc4)c3)o1)C(C)(C)CCC2(C)C [drawing 1190]
-10

Please give the result for Cc1cc2c(cc1Cc1ccc(C(=O)NCc3ccco3)o1)C(C)(C)CCC2(C)C [drawing 1089] too.
79

Now the same for Cc1cc2c(cc1Cc1ccc(C(=O)NC3c4ccccc4CC3O)o1)C(C)(C)CCC2(C)C (stereo not drawn)
-11

Do the same for Cc1cc2c(cc1Cc1ccc(C(=O)NC3COC(C)(C)O[C@H]3c3ccccc3)o1)C(C)(C)CCC2(C)C (stereo partly drawn) please
-6

Follow-up item: Cc1cc2c(cc1Cc1ccc(C(=O)NCCOc3ccccc3)o1)C(C)(C)CCC2(C)C [drawing 1182]
93

And then COc1cc(CNC(=O)c2ccc(Cc3cc4c(cc3C)C(C)(C)CCC4(C)C)o2)ccc1O [drawing 1222] , what is it?
54

Would you kindly repeat that for Cc1cc2c(cc1Cc1ccc(C(=O)NCCc3ccc(F)cc3)o1)C(C)(C)CCC2(C)C [drawing 1198] ?
45

Lookup Cc1cc2c(cc1Cc1ccc(C(=O)N3CCN(c4ccccc4[N+](=O)[O-])CC3)o1)C(C)(C)CCC2(C)C
-15

Continue with Cc1cc2c(cc1Cc1ccc(C(=O)NCC(O)c3ccccc3)o1)C(C)(C)CCC2(C)C (stereo not drawn) [drawing 1196]
68

What do we get for COc1cccc(CNC(=O)c2ccc(Cc3cc4c(cc3C)C(C)(C)CCC4(C)C)o2)c1 [drawing 1188] ?
76

Follow-up entry: Cc1cc2c(cc1Cc1ccc(C(=O)NCC(O)c3ccc(O)cc3)o1)C(C)(C)CCC2(C)C (stereo not drawn)
25

What do you have for Cc1cc2c(cc1Cc1ccc(C(=O)NCCc3ccncc3)o1)C(C)(C)CCC2(C)C [drawing 1025] ?
83

Same read-out for Cc1cc2c(cc1Cc1ccc(C(=O)NCCc3ccc(O)cc3)o1)C(C)(C)CCC2(C)C ?
19

Continue with Cc1cc2c(cc1Cc1ccc(C(=O)NCc3ccc(F)cc3Cl)o1)C(C)(C)CCC2(C)C
27

Same for Cc1cc2c(cc1Cc1ccc(C(=O)N(CCC3CCCN3C)Cc3ccc(Cl)cc3)o1)C(C)(C)CCC2(C)C (stereo not drawn)
-22

Do the same for Cc1cc2c(cc1Cc1ccc(C(=O)NC(C)c3ccc(Cl)cc3)o1)C(C)(C)CCC2(C)C (stereo not drawn) please
20

And Cc1cc2c(cc1Cc1ccc(C(=O)N3CCN(c4ccccc4F)CC3)o1)C(C)(C)CCC2(C)C ?
24

Same question, Cc1cc2c(cc1Cc1ccc(C(=O)N3CCN(c4cccc(Cl)c4)CC3)o1)C(C)(C)CCC2(C)C this time
-22

Repeat with COc1ccc(CCN(C)C(=O)c2ccc(Cc3cc4c(cc3C)C(C)(C)CCC4(C)C)o2)cc1OC
13

// next record COc1ccc(CCNC(=O)c2ccc(Cc3cc4c(cc3C)C(C)(C)CCC4(C)C)o2)cc1OC [drawing 993]
47

Param item: Cc1cc2c(cc1Cc1ccc(C(=O)NC(CO)Cc3ccc(Cl)cc3)o1)C(C)(C)CCC2(C)C (stereo not drawn)
16

Now try Cc1ccc(CNC(=O)c2ccc(Cc3cc4c(cc3C)C(C)(C)CCC4(C)C)o2)cc1C [drawing 1191] .
77

Query Cc1cc2c(cc1Cc1ccc(C(=O)NC(CO)C(O)c3ccccc3)o1)C(C)(C)CCC2(C)C (stereo not drawn) next
-1

// same read-out, input: Cc1cc2c(cc1Cc1ccc(C(=O)NCCOCCO)o1)C(C)(C)CCC2(C)C [drawing 1068]
67

Field entry: Cc1cc2c(cc1Cc1ccc(C(=O)NCCNCCNc3ccccc3)o1)C(C)(C)CCC2(C)C [drawing 1043]
-1

Cc1cc2c(cc1Cc1ccc(C(=O)N(C)[C@@H](C)[C@H](C)c3ccccc3)o1)C(C)(C)CCC2(C)C ?
-7

Follow-up item: Cc1cc2c(cc1Cc1ccc(C(=O)N(C)[C@H](C)[C@@H](O)c3ccccc3)o1)C(C)(C)CCC2(C)C
20

How about Cc1cc2c(cc1Cc1ccc(C(=O)NC(C#N)c3ccc(F)cc3)o1)C(C)(C)CCC2(C)C (stereo not drawn) ?
2

Try this compound too: Cc1cc2c(cc1Cc1ccc(C(=O)N3CCN(c4ncccc4C(F)(F)F)CC3)o1)C(C)(C)CCC2(C)C
-16

Same thing, different compound: Cc1cc2c(cc1Cc1ccc(C(=O)NCc3c(CO)cnc(C)c3O)o1)C(C)(C)CCC2(C)C
-2

Subsequent entry: Cc1cc2c(cc1Cc1ccc(C(=O)NCCSc3cc(C(F)(F)F)nc4ccccc34)o1)C(C)(C)CCC2(C)C
-18
